experimental target: AMP-activated protein kinase, AMPK (Homo sapiens) (UniProt P54646+O43741+P54619+Q9UGJ0+Q9Y478+Q13131+Q9UGI9)
assay info: AMP-dependent Kinase enzyme assay. An in vitro enzyme assay that detects ADP turnover that is directly proportional to AMPK activity. This uses naive AMPK that is activated during the assay with MK-8722
Format: functional
Design: scale not given: direction of the effect not stated beside the values
study conditions: 30 µM
Kindly supply the reported Percent Effect values for the records listed here.
Give a bare numeral; the unit % is implied.

Ask | Item under review: "CCCc1nc(NC2(COC)CCCC2)c2cnn(C)c2n1" . Reported Percent Effect?
Reply | 7.33

Ask | Request the reported Percent Effect associated with "COc1cccc(-c2ncc(CN3CC[C@H]4CC[C@@H](C3)N4)s2)c1"
Reply | 7.14

Ask | GET /values?readout=Percent Effect&item= "COCCN(C)C[C@@H]1CN(c2nc(C)cc(C)n2)C[C@@H]1CO"
Reply | 2.16

Ask | Data request, read-out Percent Effect, for "CS(=O)(=O)N1CC[C@]2(O)CCN(c3cc(C#N)ccn3)C[C@@H]2C1"
Reply | -6.37

Ask | Look up Percent Effect for this molecule: CCC(CN1CCCC1)n1cncc1-c1cnn(-c2ccccc2)c1 (centres undefined)
Reply | 20

Ask | Return reported Percent Effect; argument: "COC(=O)c1ccc(NC(=O)CCNCc2ccco2)cc1"
Reply | 2.04

Ask | Fill blank: measured Percent Effect of the molecule CCN1CCN(C(=O)C2CCOC2)c2ccccc21 (centres undefined) is ____.
Reply | -4.37

Ask | Item under review: "Cc1ccnc2c1NC(=O)CN2C(=O)CCc1cccs1" . Reported Percent Effect?
Reply | -0.535

Ask | Recorded Percent Effect of "Cc1noc(C)c1CNC(=O)NCCC(=O)N1CCCc2ccccc21" , please.
Reply | -2.4
